# Target entity: SARS-CoV-2 Omicron BQ.1.1 RBD (SARS-CoV-2 Omicron BQ.1.1, R346T | L452R)
# Protocol description: BLI
Parameter: Kd

These solved cases illustrate the format of a correct answer.
BD56-104 (antibody, V domains shown) VH: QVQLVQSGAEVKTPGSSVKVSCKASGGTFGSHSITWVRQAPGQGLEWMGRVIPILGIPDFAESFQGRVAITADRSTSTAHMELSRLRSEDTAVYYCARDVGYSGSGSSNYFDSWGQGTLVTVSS VL: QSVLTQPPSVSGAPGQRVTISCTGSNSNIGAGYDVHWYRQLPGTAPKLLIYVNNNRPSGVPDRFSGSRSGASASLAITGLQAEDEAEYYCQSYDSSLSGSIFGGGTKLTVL	< 2.1 nM
C807 (antibody, V domains shown) VH: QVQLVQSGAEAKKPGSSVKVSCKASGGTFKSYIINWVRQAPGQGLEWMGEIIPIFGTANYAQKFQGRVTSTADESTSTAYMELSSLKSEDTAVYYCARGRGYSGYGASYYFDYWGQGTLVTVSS VL: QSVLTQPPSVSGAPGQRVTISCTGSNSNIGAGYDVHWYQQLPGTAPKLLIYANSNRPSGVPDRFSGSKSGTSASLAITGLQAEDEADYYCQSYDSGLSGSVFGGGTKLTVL	< 2.1 nM

Then this binder:
Ask: For the binder shown here, BD56-597 (antibody, V domains shown) VH: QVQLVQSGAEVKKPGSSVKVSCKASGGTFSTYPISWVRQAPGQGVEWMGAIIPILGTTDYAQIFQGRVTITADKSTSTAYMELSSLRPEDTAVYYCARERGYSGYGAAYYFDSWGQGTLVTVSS VL: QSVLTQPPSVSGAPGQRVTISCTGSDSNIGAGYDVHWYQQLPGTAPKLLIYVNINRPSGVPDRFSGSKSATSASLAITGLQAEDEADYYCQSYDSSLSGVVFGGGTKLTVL , give the reported Kd.
Reply: < 2.1 nM
